test_system: beta-catenin (human)
Sequence (B6V8E6 146-665 limits assumed): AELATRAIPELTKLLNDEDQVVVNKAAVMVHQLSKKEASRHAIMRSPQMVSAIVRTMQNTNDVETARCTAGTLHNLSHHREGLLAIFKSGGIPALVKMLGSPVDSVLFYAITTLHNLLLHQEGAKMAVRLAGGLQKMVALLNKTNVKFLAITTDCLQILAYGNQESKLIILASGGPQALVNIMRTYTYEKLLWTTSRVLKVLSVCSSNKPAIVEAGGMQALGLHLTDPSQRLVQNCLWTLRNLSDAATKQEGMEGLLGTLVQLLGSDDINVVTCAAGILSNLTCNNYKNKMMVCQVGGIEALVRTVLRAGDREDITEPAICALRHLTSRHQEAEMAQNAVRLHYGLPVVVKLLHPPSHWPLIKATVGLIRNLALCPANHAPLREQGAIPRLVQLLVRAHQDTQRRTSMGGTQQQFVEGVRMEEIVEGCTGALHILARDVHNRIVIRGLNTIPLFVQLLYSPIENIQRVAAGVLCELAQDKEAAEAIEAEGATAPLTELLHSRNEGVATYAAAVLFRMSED
assay_explanation: fluorescence polarization; bin >200 nM
pIC50: −log10 of the molar value. *1 amine or outer side, *2 acyl side, *3 side chain or, on linkers, in order; H or OH if unused. Bridges are numbered along the chain shown (N, C = ends). Primed or numbered codes have the meaning given here. [ ]: non-standard residue; d: D form. B5(4) = 2-amino-2-(pent-4-en-1-yl)hept-6-enoic acid, stapled through each of its two olefin groups with other olefin-containing amino acid residues, O=C(C(CCCC=[*:3])(CCCC=[*:4])N[*:1])[*:2]; PyrS2″ = (S)-3-amino-1-((pent-4-en-1-yloxy)carbonyl)pyrrolidine-3-carboxylic acid (olefin stapling residue), C=CCCCOC(=O)N1CC[C@@](N[*:1])(C(=O)[*:2])C1; PyrS2(5) = (S)-3-amino-1-((pent-4-en-1-yloxy)carbonyl)pyrrolidine-3-carboxylic acid, C=CCCCOC(=O)N1CC[C@@](N[*:1])(C(=O)[*:2])C1; B5(5) = 2-amino-2-(pent-4-en-1-yl)hept-6-enoic acid (two olefin arms), C=CCCCC(CCCC=C)(N[*:1])C(=O)[*:2]; 2F3MeF(3) = aromatic amino acid residue, Cc1cccc(C[C@H](N[*:1])C(=O)[*:2])c1F; Phe(3-COOH) = N[C@@H](Cc1cccc(C(=O)O)c1)C(=O)O; Bta = N[C@@H](Cc1csc2ccccc12)C(=O)O; αAllylPro = C=CC[C@@]1(C(=O)O)CCCN1; BztA = aromatic amino acid residue; 4mampiperidine = not defined here; tBuAla = CC(C)(C)C[C@H](N)C(=O)O; 3Thi = N[C@@H](Cc1ccsc1)C(=O)O; Orn = NCCC[C@H](N)C(=O)O; AsnR = not defined here; GlnR = not defined here
measurement_kind: pIC50

| binder | value_observed |
| --- | --- |
| Ac-[αAllylPro]D[tBuAla][B5(5)]D[Phe(3-COOH)]AAF[AsnR][PyrS2(5)][3Thi][Bta][Orn]-NH2 (bridge 10-14; reading uncertain; also: PL3/B5/PyrS2 staple links not placed, printed as Ac-PL3-Asp-Npg-B5-Asp-3COOHF-Ala-Ala-Phe-AsnR*3-PyrS2-3Thi-BztA-Orn*3-NH2) [I-41] | > 6.12 |
| Ac-[αAllylPro]D[tBuAla][B5(4)]D[Phe(3-COOH)][GlnR]AFL[PyrS2″][2F3MeF(3)][BztA][GlnR](4mampiperidine)A-NH2 (staple 1-4 (inferred); not fully specified (bridges); printed as Ac-PL3-Asp-Npg-B5-Asp-3COOHF-GlnR-Ala-Phe-Leu-PyrS2-2F3MeF-BztA-[4mampiperidine]GlnR-Ala-NH2; reading uncertain) [I-96] | > 6.12 |
